- measured.target: KRAS-G12D protein (Homo sapiens, UniProt P01116, G12D)
- Sequence (P01116 1-188 isoform P01116-2 G12D): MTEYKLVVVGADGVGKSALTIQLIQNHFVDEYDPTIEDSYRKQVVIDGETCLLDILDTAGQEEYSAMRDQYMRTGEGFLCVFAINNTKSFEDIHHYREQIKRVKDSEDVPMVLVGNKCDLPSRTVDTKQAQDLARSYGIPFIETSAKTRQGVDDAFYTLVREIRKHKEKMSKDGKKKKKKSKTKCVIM
- test.method.notes: SOS-mediated nucleotide exchange assay (BODIPY-GDP / Tb-streptavidin TR-FRET)
- Type: biochemical
*1 amine or outer side, *2 acyl side, *3 side chain or, on linkers, in order; H or OH if unused. Where a SMILES comes first, the peptide text is derived from it. Bridges are numbered along the chain shown (N, C = ends). [ ]: non-standard residue; d: D form. NMeAha = CN[C@@H](CCN=[N+]=[N-])C(=O)O; Phe(4-F) = N[C@@H](Cc1ccc(F)cc1)C(=O)O; X2 = O=C([C@H](Cc1ccccc1F)O[*:1])[*:2]; NMe3Pal = CN[C@@H](Cc1cccnc1)C(=O)O; X1 = O=C(C12CC(CN[*:1])(C1)C2)[*:2]; X41 = COCCC[C@H](N[*:1])C(=O)[*:2]; NMeF = CN[C@@H](Cc1ccccc1)C(=O)O; PhLac = O=C(O)[C@@H](O)Cc1ccccc1; 3Pal = N[C@@H](Cc1cccnc1)C(=O)O; 4Pal = N[C@@H](Cc1ccncc1)C(=O)O; Cba = N[C@@H](CC1CCC1)C(=O)O; αMeC = C[C@](N)(CS)C(=O)O; Nle = CCCC[C@H](N)C(=O)O; Nva = CCC[C@H](N)C(=O)O
I'd appreciate it if you could supply EC50 values for the items below.
Report field: quantity (unit follows the number).

// known answers, use as guide
Prompt: Note down EC50 recorded for CCCC[C@@H]1NC(=O)[C@H](Cc2cccnc2)NC(=O)[C@H](CCN=[N+]=[N-])N(C)C(=O)[C@H](Cc2ccccc2)OC(=O)C23CC(CNC(=O)[C@H](Cc4cccnc4)N(C)C(=O)[C@H](CCCC)NC(=O)[C@H](Cc4ccccc4F)OC1=O)(C2)C3 [compound 238] (cyclo([3Pal][Nle][X2][Nle][NMe3Pal][X1][PhLac][NMeAha]))
Completion: 5.59 µM

Prompt: For the molecule CCCC[C@@H]1NC(=O)[C@H](CCCOC)NC(=O)[C@H](CC2CCC2)NC(=O)[C@H](Cc2cccnc2)NC(=O)[C@H](CCCNC(=N)N)NC(=O)[C@H](Cc2ccccc2)NC(=O)CSC[C@@](C)(C(N)=O)NC(=O)[C@H](Cc2ccccc2)N(C)C1=O [compound 55] ({CH2CO}-FR[3Pal][Cba][X41][Nle][NMeF][αMeC]-NH2; thioether N-8) , give its reported EC50.
Completion: 4.41 µM

Please turn your attention to the following entry.
Prompt: For the molecule CCC[C@@H]1NC(=O)[C@H](Cc2ccc(OC)cc2)NC(=O)[C@H](CC(C)C)NC(=O)[C@H](Cc2ccncc2)NC(=O)[C@H](CCCNC(=N)N)NC(=O)[C@H](Cc2ccc(F)cc2)NC(=O)CSC[C@H](C(=O)NCC(=O)NCC(=O)O)NC(=O)[C@H](Cc2ccccc2)N(C)C1=O [compound 66] ({CH2CO}-[Phe(4-F)]R[4Pal]LY(Me)[Nva][NMeF][dC]GG-OH; thioether N-8) , give its measured EC50 value.
Completion: 0.369 µM
